Sourced from PubChem BioAssay

run description: HepG2 cytotoxicity, primary screen, cytotoxicity control for P. falciparum antimalarial project, cell-based, ATP luminescence (AID 2303);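 note: 0% = DMSO wells and 100% = digitonin-killed cells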
experimental context: HepG2 viability, 24-48 h, at 10 µM
Calls of active or inactive are those of the source.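 Rule for the calls: active = inhibition above 50%; inactive = the rest.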
Possible outcomes: label 1 = active, label 0 = inactive

compound: FC(F)(F)c1ccc(COc2cc(Cl)ccc2Cn2ccnc2)cc1
assigned category: label 0
--
compound: Cc1cc(C)c(C(=O)Nc2n[nH]c3nnc(-c4cccc(F)c4F)cc23)c(C)c1
assigned category: label 0
--
compound: Cc1cccc(C)c1OC(=O)CSc1nnc(-c2ccccc2O)o1
assigned category: label 0
--
compound: Cc1cccc2[nH]c(-c3ccc(-c4ccc(CNC(C)C)cc4)cc3)nc12
assigned category: label 0
--
compound: C[C@H](NC(=O)C1CCCC1)C(=O)Nc1ccc(-c2ccc(-c3nc4ccc(C(F)(F)F)cc4[nH]3)cc2)cc1
assigned category: label 0
--
compound: O=C(/C=C/c1ccc(Cl)c(Cl)c1)NCCCCCN1CCN(C(=O)Nc2ccc(OC(F)F)cc2)CC1
assigned category: label 0
--
compound: COc1ccccc1C(=O)N1CCN(Cc2cccs2)CC1
assigned category: label 1
--
compound: CCc1nc(N)nc(N)c1-c1ccc(C(C)(C)C)cc1
assigned category: label 0
--
compound: CC(C)CNCc1ccc(-c2cccc(CN(CCN(C)C)C(=O)CCC3CCCC3)c2)cc1
assigned category: label 1
--
compound: CCOc1cc2ncnc(Nc3ccc(OCc4ccccc4Br)c(OC)c3)c2cc1OCC
assigned category: label 0
--
compound: CCN(CCCN1CCCCC1)c1cc(C)nc(Nc2ccc(Oc3ccccc3)cc2)n1
assigned category: label 1
--
compound: Fc1ccc2cc(C=Cc3ccncc3)[nH]c2c1
assigned category: label 0
--
compound: C=CCc1cc(OC)ccc1OCCCOc1c(C)nc(N)nc1N
assigned category: label 1
--
compound: COc1cc(NC(=O)C(c2ccc(Cl)cc2)C(C)C)cc(OC)c1OC (stereo unspecified)
assigned category: label 0
--
compound: Nc1cc(-c2ccc3ccccc3c2)nc2ccccc12
assigned category: label 0
--
compound: O=C(/C=C/c1ccc(Cl)c(Cl)c1)NCCCCCN1CCC(NS(=O)(=O)c2cc(Cl)cc(Cl)c2)CC1
assigned category: label 0
--
compound: FC(F)(F)c1cccc2c(NN=Cc3ccccc3)ccnc12
assigned category: label 0
--
compound: O=C(NC1CCN(Cc2ccccc2)CC1)c1cccc(-c2nc3ccc(Cl)cc3[nH]2)c1
assigned category: label 0
--
compound: O=C(NCCNc1ccnc(Nc2ccc(F)cc2)n1)Nc1ccccc1F
assigned category: label 0
--
compound: COc1ccc(Nc2nccc(N3CCC(NC(=O)Nc4ccc5c(c4)OCO5)C3)n2)cc1 (stereo unspecified)
assigned category: label 0
--
compound: CCCCCCCN(CCCCCCC)CCCC(=O)Nc1ccnc2ccc(OC)cc12
assigned category: label 0

---

As shown below, each of these molecules has a reported inhibition value.
system: L-lactate dehydrogenase (Plasmodium falciparum (isolate CDC / Honduras))
run description: PfLDH activity inhibition – cell lysate, 3D7 strain, counter-screen for P. falciparum growth inhibition project (AID 2304);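 note: 0% = vehicle and 100% = reference inhibitor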
experimental context: P. falciparum 3D7 crude extract, LDH APAD/NBT absorbance; at 2 µM; active compounds read high
property name: inhibition (%)

molecule: Oc1ccc(CCCNc2nc(NCc3ccccc3-c3ccccc3)nc(N3CCNCC3)n2)cc1
reported measurement: 5

molecule: C=CCn1c(Cc2ccccc2)nnc1Sc1ccc(C#N)c([N+](=O)[O-])c1
reported measurement: 2

molecule: COc1cc(NCC(CN)Cc2ccc3c(c2)OCO3)nc2ccccc12 (stereo not given)
reported measurement: 0

molecule: CN1CCN(c2cc3c(cc2Cl)CCN3C(=O)Cc2ccc(Cl)c(NC(=O)Nc3cccc([N+](=O)[O-])c3)c2)CC1
reported measurement: -7

molecule: CCNS(=O)(=O)c1ccc(Oc2ccc([N+](=O)[O-])cc2)cc1
reported measurement: 1
